Tested on: Escherichia coli (NBRC3972)
Assay Method Text: Measurement of viable bacterial count on fabric
Type: cell-based
Condition Info: agent 500 μg/fabric g
Observation Type: Bacterial count (Log (cfu/fabric cm^2))

Ask: Find the measured Bacterial count (Log (cfu/fabric cm^2)) of CCCCCCCCCCCCCCO [Example C14OH, 1-tetradecanol] with Escherichia coli (NBRC3972) as test system.
Reply: 6.7 Log (cfu/fabric cm^2)

Ask: Find the measured Bacterial count (Log (cfu/fabric cm^2)) of CCCCCCCCCCO [Example C10OH, 1-decanol] with Escherichia coli (NBRC3972) as test system.
Reply: 6.5 Log (cfu/fabric cm^2)

Ask: Find the measured Bacterial count (Log (cfu/fabric cm^2)) of CCCCCCCCCCCCOCCOCCO [Example C12E2, diethylene glycol mono-1-dodecyl ether, reference compound] with Escherichia coli (NBRC3972) as test system.
Reply: 6.5 Log (cfu/fabric cm^2)

Ask: Find the measured Bacterial count (Log (cfu/fabric cm^2)) of CCCCCCCCCCCCCCCCCCO [Example C18OH, 1-octadecanol, reference compound] with Escherichia coli (NBRC3972) as test system.
Reply: 6.2 Log (cfu/fabric cm^2)

Ask: Find the measured Bacterial count (Log (cfu/fabric cm^2)) of CCCCCCCCCCCCO [Example C12OH, 1-dodecanol] with Escherichia coli (NBRC3972) as test system.
Reply: 6.3 Log (cfu/fabric cm^2)

Ask: Find the measured Bacterial count (Log (cfu/fabric cm^2)) of `CCCCCCCCCO` with Escherichia coli (NBRC3972) as test system.
Reply: 6.5 Log (cfu/fabric cm^2)

---

Can you tell me Metabolism suppression rate (%) for the items I'm about to list?
Test system: Staphylococcus aureus
Assay Method Text: Suppression of metabolism of 14-methylhexadecanoic acid on cotton fabric
Format: cell-based
Condition Info: agent 250 μg/fabric g
Method: A methanol solution in which 14-methylhexadecanoic acid (SIGMA-ALDRICH) was dissolved was added dropwise to 3 cm×3 cm pieces of sterilized plain-weave cotton fabric to make it adhered to the fabric. […] 3 ml of methanol was added to the screw tube bottle after culture, and extraction was carried out under ultrasonic irradiation for 30 minutes (20° C.). […] After that, 14-methylhexadecanoic acid remaining on the fabric was quantified by GC. […]
Write the value in % as a bare number.

Ask: Supply Metabolism suppression rate (%) value. Item: CCCCCCCCCCCCCCCCCCO [Example C18OH, 1-octadecanol, reference compound]
Reply: −1

Ask: Supply Metabolism suppression rate (%) value. Item: CCCCCCCCCCO [Example C10OH, 1-decanol]
Reply: 16

Ask: Supply Metabolism suppression rate (%) value. Item: CCCCCCCCCCCCCCCCO [Example C16OH, 1-hexadecanol]
Reply: 16

Ask: Supply Metabolism suppression rate (%) value. Item: CCCCCCCCCCCCCCO [Example C14OH, 1-tetradecanol]
Reply: 42

Ask: Supply Metabolism suppression rate (%) value. Item: CCCCCCCCCCCCO [Example C12OH, 1-dodecanol]
Reply: 75

Ask: Supply Metabolism suppression rate (%) value. Item: CCCCCCCCCCCCOCCOCCO [Example C12E2, diethylene glycol mono-1-dodecyl ether, reference compound]
Reply: 7

---

Tested on: Rhodotorula mucilaginosa
Assay Method Text: Suppression of metabolite 4-methylhexanoic acid from 14-methylhexadecanoic acid
Format: cell-based
Condition Info: agent 250 μg/fabric g
Observation Type: Metabolite suppression rate (%)
Write the value in % as a bare number.

Ask: Supply Metabolite suppression rate (%) value. Item: CCCCCCCCCCCCCCO [Example C14OH, 1-tetradecanol]
Reply: 45

Ask: Supply Metabolite suppression rate (%) value. Item: CCCCCCCCCCCCCCCCO [Example C16OH, 1-hexadecanol]
Reply: 38

Ask: Supply Metabolite suppression rate (%) value. Item: CCCCCCCCCO [Example C9OH, 1-nonyl alcohol]
Reply: 21

Ask: Supply Metabolite suppression rate (%) value. Item: CCCCCCCCCCO [Example C10OH, 1-decanol]
Reply: 46

Ask: Supply Metabolite suppression rate (%) value. Item: CCCCCCCCCCCCOCCO [Example C12E1, ethylene glycol mono-1-dodecyl ether]
Reply: 41
